Target: Retinaldehyde dehydrogenase 3 (Homo sapiens)
Experiment: qHTS for Inhibitors of the Aldehyde Dehydrogenase Family (ALDH1A3) Primary screen (AID 2061315);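 further: plate controls were DMSO vehicle for no effect and reference inhibitor for full effect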
Details: ALDH inhibition qHTS; series mostly up to 56 µM
Records with an inconclusive call do not appear. Calls of active or inactive are those of the source. The call rests on the fitted dose curve; in most records, active means well fitted inhibition curve with a large enough effect; inconclusive means small, poorly fitted or top-dose-only effect; inactive means no such curve, though single readings can be large or run the other way.
measurement.kind: activity change, negative = inhibition

- C[C@@H]1O[C@@H](O[C@H]2[C@H](O[C@H]3[C@H](O[C@H]4CC[C@@]5(C)C(CC[C@]6(C)C5CC=C5[C@@H]7CC(C)(C)CC[C@]7(C(=O)O[C@@H]7O[C@H](CO)[C@@H](O[C@@H]8O[C@@H](C)[C@H](O)[C@@H](O)[C@H]8O)[C@H](O)[C@H]7O)CC[C@]56C)C4(C)C)OC[C@H](O)[C@@H]3O)O[C@H](CO)[C@@H](O)[C@@H]2O)[C@H](O)[C@H](O)[C@H]1O (stereo partly specified): -3.58% [at 11.2 µM] (inactive)
- COc1cc(O)cc(C)c1C(=O)O[C@H]1[C@@H](O)[C@@H](n2ccc(=O)[nH]c2=O)O[C@@H]1CO: inactive
- COC(=O)[C@H](OC(C)=O)[C@H]1C(C)(C)C(=O)[C@H]2CC3=C4CC(=O)O[C@@H](c5ccoc5)[C@]4(C)CCC3[C@@]1(C)C2=O (stereo partly specified): inactive
- O=C1CCCC2=C1C(c1[nH]ncc1Cl)NC(=S)N2 (stereo unspecified): inactive
- Cc1cc(C(C)Nc2ccccc2C(=O)O)c2nc(N3CCOCC3)cc(=O)n2c1 (stereo unspecified): inactive

State the recorded activity change, negative = inhibition for this entry: O=[N+]([O-])c1cn2c(n1)OCC(OCc1ccc(OC(F)(F)F)cc1)C2 (stereo unspecified) inactive
